- System: Escherichia coli TOP10
- method summary: shrunken log2 fold change of peptide-encoding DNA abundance (4.5 h post-induction vs induction); higher = less antimicrobial activity (less host growth inhibition)
- run parameters: time post-induction: 4.5 h; library: site-saturation at positions 5, 18, 19, 20
measure name: shrunken log2 fold change

Query (sequence): `RRIRMRPPRLPRPRPRPQRMPRP` ; field requested: shrunken log2 fold change
0.583

Moving on to `RRIRGRPPRLPRPRPRPCYNPRP`
0.0333

Moving on to `RRIRTRPPRLPRPRPRPQLHPRP`
0.0211

Moving on to `RRIRNRPPRLPRPRPRPEADPRP`
0.0747

Moving on to `RRIRKRPPRLPRPRPRPRCEPRP`
0.568

Moving on to `RRIRSRPPRLPRPRPRPAGHPRP`
-0.794

Moving on to `RRIRNRPPRLPRPRPRPGRRPRP`
0.79

Moving on to `RRIRPRPPRLPRPRPRPGCGPRP`
0.514

Moving on to `RRIRYRPPRLPRPRPRPCYNPRP`
-0.857

Moving on to `RRIRNRPPRLPRPRPRPAISPRP`
-0.128

Moving on to `RRIRDRPPRLPRPRPRPHIHPRP`
-0.342

Moving on to `RRIRHRPPRLPRPRPRPGNKPRP`
-0.089

Moving on to `RRIRARPPRLPRPRPRPLTGPRP`
0.172

Moving on to `RRIRMRPPRLPRPRPRPCARPRP`
0.343

Moving on to `RRIRQRPPRLPRPRPRPSLKPRP`
-0.235

Moving on to `RRIRNRPPRLPRPRPRPNRGPRP`
0.0523

Moving on to `RRIRPRPPRLPRPRPRPHSPPRP`
-0.0589

Moving on to `RRIRERPPRLPRPRPRPINTPRP`
-0.351

Moving on to `RRIRPRPPRLPRPRPRPVAFPRP`
-0.0622

Moving on to `RRIRGRPPRLPRPRPRPFWPPRP`
0.653

Moving on to `RRIRFRPPRLPRPRPRPYDLPRP`
-1.02

Moving on to `RRIRKRPPRLPRPRPRPHYIPRP`
-0.123

Moving on to `RRIRFRPPRLPRPRPRPDHTPRP`
-0.318

Moving on to `RRIRHRPPRLPRPRPRPVCKPRP`
-0.14

Moving on to `RRIRIRPPRLPRPRPRPACLPRP`
-0.228

Moving on to `RRIRSRPPRLPRPRPRPKCDPRP`
0.00444

Moving on to `RRIRRRPPRLPRPRPRPWGGPRP`
0.53

Moving on to `RRIRPRPPRLPRPRPRPKYLPRP`
-0.0768

Moving on to `RRIRPRPPRLPRPRPRPMLYPRP`
-0.0392

Moving on to `RRIRMRPPRLPRPRPRPWTQPRP`
-0.0562

Moving on to `RRIRCRPPRLPRPRPRPWWCPRP`
-0.248

Moving on to `RRIRYRPPRLPRPRPRPWINPRP`
-0.803

---

Exercise: for every item that follows, state its recorded shrunken log2 fold change.
- Tested on: Escherichia coli TOP10;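 note: peptides expressed intracellularly from a pBAD plasmid library in pooled LB shake-flask culture, induced with 0.3% L-arabinose, DNA abundance read by NGS, three biological replicates, DESeq2 with apeglm shrinkage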
- method summary: shrunken log2 fold change of peptide-encoding DNA abundance (4.5 h post-induction vs induction); higher = less antimicrobial activity (less host growth inhibition)
- run parameters: time post-induction: 4.5 h; library: site-saturation at positions 5, 18, 19, 20
Field format: numeric only.

Query (sequence): `RRIRVRPPRLPRPRPRPGGHPRP` ; field requested: shrunken log2 fold change
0.13

Moving on to `RRIRFRPPRLPRPRPRPESGPRP`
0.0504

Moving on to `RRIRCRPPRLPRPRPRPIGCPRP`
-0.00449

Moving on to `RRIRGRPPRLPRPRPRPEAEPRP`
2.74

Moving on to `RRIRDRPPRLPRPRPRPYNNPRP`
-0.489

Moving on to `RRIRIRPPRLPRPRPRPNTVPRP`
-1.09

Moving on to `RRIRHRPPRLPRPRPRPNYQPRP`
-0.28

Moving on to `RRIRFRPPRLPRPRPRPHQWPRP`
-0.0612

Moving on to `RRIRSRPPRLPRPRPRPLVAPRP`
0.27

Moving on to `RRIRYRPPRLPRPRPRPVDPPRP`
-0.0356

Moving on to `RRIRSRPPRLPRPRPRPPKSPRP`
0.271

Moving on to `RRIRLRPPRLPRPRPRPFNQPRP`
-0.122

Moving on to `RRIRHRPPRLPRPRPRPYNIPRP`
-0.244

Moving on to `RRIRPRPPRLPRPRPRPCREPRP`
-0.075

Moving on to `RRIRCRPPRLPRPRPRPHEAPRP`
-0.65

Moving on to `RRIRWRPPRLPRPRPRPFHPPRP`
-0.138

Moving on to `RRIRQRPPRLPRPRPRPLIKPRP`
-0.249

Moving on to `RRIRCRPPRLPRPRPRPIWMPRP`
-0.677

Moving on to `RRIRQRPPRLPRPRPRPVLCPRP`
-0.238

Moving on to `RRIRARPPRLPRPRPRPRGLPRP`
0.628

Moving on to `RRIRDRPPRLPRPRPRPTAIPRP`
0.394

Moving on to `RRIRFRPPRLPRPRPRPVVCPRP`
-0.0801

Moving on to `RRIRQRPPRLPRPRPRPFWWPRP`
0.0308

Moving on to `RRIRSRPPRLPRPRPRPCNHPRP`
-0.361

Moving on to `RRIRPRPPRLPRPRPRPSEQPRP`
-0.233

Moving on to `RRIRHRPPRLPRPRPRPMRWPRP`
0.396

Moving on to `RRIRQRPPRLPRPRPRPTQSPRP`
0.375

Moving on to `RRIRVRPPRLPRPRPRPCTCPRP`
-0.00748

Moving on to `RRIRCRPPRLPRPRPRPCDSPRP`
-0.042

Moving on to `RRIRMRPPRLPRPRPRPPCWPRP`
0.162

Moving on to `RRIRVRPPRLPRPRPRPFDCPRP`
-0.0718

Moving on to `RRIRWRPPRLPRPRPRPSINPRP`
-0.0638
